system: SK-OV-3 ovarian; assay: NCI tumour cell line growth inhibition, 48 h
# TGI per record follows
readout-kind: TGI

{"columns": ["molecule", "value-reported"],
 "data": [
  ["CC12CN(CC[N+](C)(C)C)CC1(C)C1CCC2O1 (configuration not stated)", "> 100 µM"],
  ["CN1C(=O)n2c(nc3ccccc32)C(N=[N+]=[N-])(N=[N+]=[N-])C1=O (configuration not stated)", "> 100 µM"],
  ["CCOC(=O)Cn1c(=O)c2nc(SC)sc2n(-c2ccc(C)cc2)c1=S", "> 100 µM"],
  ["COc1ccc(-c2oc3c(CC(=O)O)cccc3c(=O)c2OC)cc1", "> 100 µM"],
  ["CCCCCCN(CCCCCC)C(=N)c1ccnc2ccccc12", "24.7 µM"],
  ["CCCCCCCCN(CCCCCCCC)C(=N)c1ccnc2ccccc12", "3 µM"],
  ["O=C(O)/C(Cl)=C(\\Cl)Nc1cccc(C(F)(F)F)c1", "> 100 µM"]
]}

====

system: T-47D breast; assay: NCI tumour cell line growth inhibition, 48 h

{"columns": ["molecule", "readout-units", "censor-symbol", "TGI"],
 "data": [
  ["C[C@H]1CCC/C=C/[C@@H]2C[C@H](O)C[C@H]2[C@H](O)[C@H](S(=O)c2ccc(O)cc2)CC(=O)O1 (some centres undefined)", "µM", "=", 0.67],
  ["CN1CCN(C(=O)c2ccc(NC(=O)Nc3ccc(N(C)c4ccnc(Nc5ccc(CS(C)(=O)=O)cc5)n4)cc3)cc2)CC1", "µM", "=", 19.7],
  ["COc1ccc(-c2coc3ncnc(N)c23)cc1", "µM", ">", 25],
  ["O=C(OC(C(=O)O)C(OC(=O)c1ccccc1)C(=O)O)c1ccccc1 (centres undefined) (tested in a mixture with another compound)", "µM", ">", 100],
  ["CC(=O)O[C@H]1CC[C@H]2[C@@H]3CCc4cc(O)c(I)cc4[C@H]3CC[C@]12C", "µM", "=", 31.7],
  ["COC(=O)[C@H](CCSC)NC(=O)c1ccc(CNC(=O)/C=C/c2cccc(Oc3ccccc3)c2)cc1", "µM", "=", 27],
  ["Cc1cc(C)c2c(=O)cc(-c3ccc(Cl)cc3)[nH]c2n1", "µM", ">", 100],
  ["CCCCCCN(CCCCCC)C(=N)c1ccnc2ccccc12", "µM", "=", 13.2],
  ["COc1cccc2c1C(=O)C(=O)c1c-2oc(=O)c2cc(C)cc(OC)c12", "µM", ">", 75]
]}

====

system: KM20L2 colon; assay: NCI tumour cell line growth inhibition, 48 h
# TGI per record follows

{"columns": ["compound", "measured-target", "TGI"],
 "data": [
  ["Cc1nc(Nc2nnc(-c3cc([N+](=O)[O-])cc([N+](=O)[O-])c3C)o2)sc1C(=O)CC(=O)Cc1nc2ccc(Cl)cc2[nH]c1=O", "KM20L2 colon", "> 100 µM"],
  ["CC[O-].CC[O-].[O-]c1ccccc1C=Nc1ccccc1.[O-]c1ccccc1C=Nc1ccccc1.[Ti+4]", "KM20L2 colon", "> 100 µM"],
  ["C/C(CC(=O)CCCC(=O)Nc1ccc(Cl)cc1Cl)=N/NC(=O)CC#N", "KM20L2 colon", "> 100 µM"],
  ["COc1ccc2cc(C(=O)c3ccccc3C(=O)O)ccc2c1", "KM20L2 colon", "> 100 µM"],
  ["C=C(C)C(=O)NC(N)=NC#N", "KM20L2 colon", "232 µM"],
  ["CC(N)Cc1cccc(C(F)(F)F)c1 (stereo unspecified)", "KM20L2 colon", "> 100 µM"]
]}

====

tested on: SF-268 CNS; experiment: NCI tumour cell line growth inhibition, 48 h

{"columns": ["compound", "readout-units", "censor-symbol", "TGI"],
 "data": [
  ["CC(C)C1C(=O)N2CCCC2C2(O)OC(NC(=O)C3C=C4c5cccc6[nH]cc(c56)CC4N(C)C3)(C(C)C)C(=O)N12 (centres undefined)", "µM", ">", 100],
  ["COc1ccc(C(=S)c2cc(OC)c(OC)c(OC)c2)cc1OC(=O)CCl", "µM", ">", 100],
  ["CCCCCCCC1c2cc3[nH]c(cc4nc(cc5[nH]c(cc(n2)[C@@]1(C)CC(=O)N(C)C)c(C)c5CCC(=O)O)C(CCC(=O)O)=C4C)cc3C (some centres undefined)", "µM", "=", 42.9],
  ["Cn1c(=O)n(-c2c3ccccc3c(Cl)c3ccccc23)n(C(C)(C)C)c1=O", "µM", ">", 100],
  ["COc1cc(N2CCC(N3CCN(C)CC3)CC2)ccc1Nc1ncc(Cl)c(Nc2ccccc2P(C)(C)=O)n1", "µM", "=", 14],
  ["CC(=O)C1(c2ccccc2)CCN(Cn2sc3nc(C)cc(C)c3c2=O)CC1", "µM", ">", 100],
  ["C=C(C)C1CC=C(C(=O)O)CC1 (centres undefined)", "µM", "=", 4060],
  ["CC(C)(Cl)CCC1=C(Cl)C(=O)c2ccccc2C1=O", "µM", "=", 11.3],
  ["CN1CCC23c4c5ccc(O)c4OC2C(=NN=C2CCC4(O)C6Cc7ccc(O)c8c7C4(CCN6C)C2O8)CCC3(O)C1C5 (centres undefined)", "µM", ">", 100]
]}

====

test system: NCI-H460 lung

{"columns": ["smiles-data", "GI50"],
 "data": [
  ["CCOC(=O)[C@H](CSSc1ncnc2cc[nH]c12)NC(=O)[C@@H](C)c1ccc2cc(OC)ccc2c1", "3.04 µM"],
  ["O=S(=O)(NCCNc1cc(-c2cn(-c3ccccc3)nc2-c2cccc(O)c2)ccn1)c1ccc(C(F)(F)F)cc1", "3.23 µM"],
  ["COc1cc2c(c(OC)c1OC)-c1ccc([O-])c(=O)cc1[C@@H](NC(C)=O)CC2.COc1cc2c(c(OC)c1OC)-c1ccc([O-])c(=O)cc1[C@@H](NC(C)=O)CC2.[Cu+2]", "3.29 µM"],
  ["CCN(Cc1ccc(F)cc1)c1ccc(CO)c(Cl)c1", "0.213 µM"]
]}

====

tested on: SF-268 CNS; experiment: NCI tumour cell line growth inhibition, 48 h
# TGI per record follows

{"columns": ["compound", "measured-target", "TGI"],
 "data": [
  ["C=C(Cl)C(C)(Cl)CCC(Cl)C(C)(C)Cl (stereo not drawn)", "SF-268 CNS", "> 100 µM"],
  ["COC(=O)c1cc(C#N)[nH]c1-c1ccsc1", "SF-268 CNS", "> 100 µM"],
  ["CCCCCCCCCCCCCCCCC1=CC(=O)C=C(OC)C1=O", "SF-268 CNS", "> 100 µM"],
  ["Cc1cc(Cl)ccc1Nc1sc(C(=O)c2cc3cc(Cl)ccc3o2)c(N)c1C#N", "SF-268 CNS", "26.9 µM"],
  ["COC(C)(C)C(O)C(O)C[C@H](C)C1CC=C2C1(C)CCC1[C@@]3(C)CCC(OC(C)=O)C(C)(C)C3CC(OC3OC(COC(C)=O)C(O)C(O)C3O)[C@@]21C (stereo partly drawn)", "SF-268 CNS", "> 10 µM"],
  ["C#C[C@@]1(O)[C@@H](CO)O[C@@H](n2cc(Cl)c3c(N)ncnc32)[C@@H]1O", "SF-268 CNS", "21.2 µM"],
  ["CCc1ccc(C2=C/C(=C/c3ccc(Cl)cc3)C(=O)N2CCc2ccc(S(N)(=O)=O)cc2)cc1", "SF-268 CNS", "25.9 µM"],
  ["CCOC(=O)/C(C#N)=C(/NS(=O)(=O)c1cc(C)c(Cl)cc1[S-])[n+]1ccc(N(C)C)cc1", "SF-268 CNS", "> 100 µM"],
  ["Cc1cc(NC(=O)c2ccc(NS(=O)(=O)CCO)cc2N2CCC3(CC2)CC3)nc(N2CCC(F)(F)CC2)n1", "SF-268 CNS", "29 µM"],
  ["COc1cccc(-c2nn(-c3ccccc3)cc2-c2ccnc(NCCNS(=O)(=O)c3ccc(C(F)(F)F)cc3)c2)c1", "SF-268 CNS", "> 100 µM"],
  ["CC1=C(C)SC(=C2Sc3c(n(C)c(=O)[nH]c3=O)S2)S1", "SF-268 CNS", "> 100 µM"],
  ["COc1ccccc1C1C2=C(COC2=O)OC(C)(C)Oc2cc3c(cc21)OCO3 (stereo not drawn)", "SF-268 CNS", "98.1 µM"],
  ["Cc1c(O)c(OC2OC(CO)C(O)C(O)C2O)cc2c1CC[C@@H]1C2(C)C(=O)C[C@]2(C)[C@@H]([C@@](C)(O)C(O)/C=C/C(C)(C)O)[C@H](O)C[C@@]12C (stereo partly drawn)", "SF-268 CNS", "> 100 µM"],
  ["COc1cccc2c1C(=O)C(=O)c1c-2oc(=O)c2cc(C)cc(OC)c12", "SF-268 CNS", "41.8 µM"],
  ["CC(=O)OCc1nc(C#N)c(N)o1", "SF-268 CNS", "> 100 µM"],
  ["CCOC(=O)CSc1nc2ccccc2c(=O)n1N", "SF-268 CNS", "> 100 µM"],
  ["C=CCNC1=C2C[C@@H](C)C[C@@H](OC)[C@H](OC(=O)CN(C)C)[C@H](C)/C=C(\\C)[C@@H](OC(N)=O)[C@H](OC)/C=C\\C=C(/C)C(=O)NC(=CC1=O)C2=O", "SF-268 CNS", "30.5 µM"],
  ["COC1=CC(=O)c2ccc(C(C)C)cc2C1(C)C1=NC(C)(C)CO1 (stereo not drawn)", "SF-268 CNS", "> 100 µM"]
]}
